// values below are reported EC50
target: SARS-CoV-2 receptor binding domain (RBD), wild type (SARS-CoV-2, UniProt P0DTC2 319-539); assay: ELISA, RBD protein coated, mAb titrated
Give just the number in ng/mL; leave the unit off.

# binder, measure.unit, value.reported
rows = [
    ("C092 (antibody, V domains shown) VH: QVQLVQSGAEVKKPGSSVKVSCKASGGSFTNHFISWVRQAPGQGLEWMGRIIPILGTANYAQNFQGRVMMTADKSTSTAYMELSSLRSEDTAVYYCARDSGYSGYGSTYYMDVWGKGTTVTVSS VL: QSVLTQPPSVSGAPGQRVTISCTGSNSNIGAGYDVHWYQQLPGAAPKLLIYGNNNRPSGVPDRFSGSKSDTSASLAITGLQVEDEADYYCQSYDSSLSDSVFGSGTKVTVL", "ng/mL", 7.07),
]

Proceeding to the next binder to report its EC50.
So, C519 (antibody, V domains shown) VH: QVQLQESGPGLVKPSETLSLTCAVSGGSISSYYWSWIRQPPGKGLEWIGYIDTSGSTNYNPSLKSRVTMSVDTSKNQFSLNVNSVTAADTAVYFCGVCAGDCYAASVFDYRGQGTLVTVSS VL: DIQMTQSPSSLSASVGDRVTITCQASQDIIFYLNWYQQKPGKAPKLLIYDASNLKTGVPSRFSGSGSGTDFAFTISSLQPEDIATYYCQQYDNLPLTFGGGTKVEIK ? Its EC50 was 1.06
